The measured values listed here are drawn from ChEMBL document CHEMBL3886469.

# target.desc: Tyrosine-protein kinase BTK (Homo sapiens, UniProt Q06187)
# Sequence (Q06187 whole entry): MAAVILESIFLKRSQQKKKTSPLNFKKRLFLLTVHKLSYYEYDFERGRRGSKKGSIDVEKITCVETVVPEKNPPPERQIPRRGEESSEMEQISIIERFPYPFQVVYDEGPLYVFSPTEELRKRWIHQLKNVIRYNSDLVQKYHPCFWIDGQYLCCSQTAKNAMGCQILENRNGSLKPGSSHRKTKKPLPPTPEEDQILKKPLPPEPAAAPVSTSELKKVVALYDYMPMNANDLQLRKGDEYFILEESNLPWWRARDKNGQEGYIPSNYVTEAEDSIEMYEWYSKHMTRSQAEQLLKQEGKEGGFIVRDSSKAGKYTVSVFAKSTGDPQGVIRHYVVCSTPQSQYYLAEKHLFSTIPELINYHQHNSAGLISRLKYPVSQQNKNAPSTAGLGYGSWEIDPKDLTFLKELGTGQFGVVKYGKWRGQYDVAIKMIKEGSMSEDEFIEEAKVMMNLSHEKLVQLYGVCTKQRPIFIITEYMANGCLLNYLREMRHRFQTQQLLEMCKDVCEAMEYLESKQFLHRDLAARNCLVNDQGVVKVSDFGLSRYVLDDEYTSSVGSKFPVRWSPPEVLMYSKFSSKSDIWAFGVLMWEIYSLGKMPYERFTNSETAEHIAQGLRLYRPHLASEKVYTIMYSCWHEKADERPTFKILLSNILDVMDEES
# method.description: Biochemical Enzyme Assay: The inhibitory activity of the present compounds against Btk was assessed in a biochemical enzyme assay. Assay plates in 384 well format were prepared with 8-point serial dilutions for the test compounds on a Thermo CatX workstation equipped with a Innovadyne Nanodrop Express. The assay plates were prepared by addition of 50 nl per well of compound solution in 90% DMSO. The kinase reactions were started by stepwise addition of 4.5 ul per well of peptide/ATP-solution (4 uM FITC-Ahx-[…]-NH2, 164 uM ATP) in kinase buffer (50 mM HEPES, pH 7.5, 1 mM DTT, 0.02% Tween20, 0.02% BSA, 0.6% DMSO, 10 mM beta-glycerophosphate, and 10 uM sodium orthovanadate, 18 mM MgCl2, 1 mM MnCl2) and 4.5 ul per well of enzyme solution (6.4 nM full-length human recombinant BTK) in kinase buffer. Kinase reactions were incubated at 30° C. for 60 minutes and subsequently terminated by addition of 16 ul per well of stop solution (100 mM HEPES pH 7.5, 5% DMSO, 0.1% Caliper coating reagent, 10 mM EDTA, and 0.015% Brij35). Kinase reactions were analyzed on a Caliper LC3000 workstation by separating phosphorylated and unphosphorylated peptides and kinase activities were calculated from the amounts of newly formed phospho-peptide. Inhibition data were calculated by comparison to control reactions without enzyme (100% inhibition) and without inhibitors (0% inhibition).
pIC50: −log10 of the molar value.
metric.name: pIC50

Please review the entries below; each comes with its answer.
• Cc1c(NC(=O)c2ccc(C(C)(C)O)cc2F)cc(F)cc1-c1ncnc2[nH]c(C3=CCN(C(=O)N(C)C)CC3)cc12 = 7.89
• C=C(C)c1ccc(C(=O)Nc2cc(F)cc(-c3ncnc4[nH]c(C5=CCN(C(=O)N(C)C)CC5)cc34)c2C)cc1 = 8.52
• Cc1c(NC(=O)c2ccc(C(C)(C)C)cc2)cc(F)cc1-c1ncnc2[nH]c(C3=CCC4(CC3)OCCO4)cc12 = 6.96

a = Cc1c(NC(=O)c2ccc(C(C)(C)C)cc2)cc(F)cc1-c1ncnc2[nH]c(C3=CCSCC3)cc12
b = Cc1c(NC(=O)c2ccc(C3CC3)cc2)cc(F)cc1-c1ncnc2[nH]c(C3=CCN(C(=O)CC#N)CC3)cc12
Lookup: // max by pIC50 over [ a , b ] # reply format: chosen label
Found: b
